Taken from patent US11358954B2.

# Test target: Human PPARδ (Homo sapiens, UniProt Q03181)
# Construct: (PPARδ amino acid 128 to C-terminus)
# Sequence (Q03181 128-441 limits assumed): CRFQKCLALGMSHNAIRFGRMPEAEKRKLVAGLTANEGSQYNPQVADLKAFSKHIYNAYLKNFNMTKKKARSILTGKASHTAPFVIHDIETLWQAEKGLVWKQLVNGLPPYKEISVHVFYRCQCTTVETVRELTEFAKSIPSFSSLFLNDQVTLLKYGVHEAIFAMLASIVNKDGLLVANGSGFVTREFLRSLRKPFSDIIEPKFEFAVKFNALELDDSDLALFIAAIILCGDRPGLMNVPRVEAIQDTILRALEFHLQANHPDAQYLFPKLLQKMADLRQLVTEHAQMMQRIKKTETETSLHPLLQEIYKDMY
# Experiment description: PPARδ activity screen (GAL4-PPARδ LBD luciferase transactivation in CV-1 cells)
# Condition notes: 24 h compound treatment, luciferase reporter
Observable: pEC50
The read-out pEC50 is expressed as -log10 of concentration in moles per litre.

Molecule: O=C(O)CCCCCOc1ccccc1Cn1c(C(F)(F)F)cnc1-c1ccc(-c2ccco2)cc1 [Compound 2h]
pEC50: 8.70

# pEC50 lookup, item C[C@H](CCCOc1ccccc1Cn1c(C(F)(F)F)cnc1-c1ccc(F)cc1)CC(=O)O [Compound 2e]
7.60

====

# Experiment description: Pharmacokinetic screening in male CD-1 mice
# Type: in vivo
# Condition notes: male, CD-1, in vivo, 3 mg/kg; mouse, 3.0 mpk po; read-out: Oral PK Cmax
Each entry below carries its recorded Cmax.
Give the number; ng/mL is assumed, so skip it.

Past entries and their recorded results:
Compound: C[C@H](CCCOc1ccccc1Cn1c(Cl)cnc1-c1ccc(C(F)(F)F)cc1)CC(=O)O [Compound 2b]
Observable: Cmax
Value: 2950
--
Compound: C[C@H](CCCOc1ccccc1Cn1c(C(F)(F)F)cnc1-c1ccc(C#N)cc1)CC(=O)O [Compound 2f]
Observable: Cmax
Value: 4240
--
Compound: C[C@H](CCCOc1ccccc1Cn1c(C(F)(F)F)cnc1-c1ccc(C(F)(F)F)cc1)CC(=O)O [Compound 2a]
Observable: Cmax
Value: 1260

Kindly consider the entry below.
# Cmax lookup, item C[C@H](CCCOc1ccccc1Cn1c(C(F)(F)F)cnc1-c1ccc(Cl)cc1)CC(=O)O [Compound 2d]
2830

====

# Test target: hERG (Homo sapiens)
# Construct: expressed in transfected cells
# Experiment description: hERG inhibition screen (patch clamp, peak hERG tail current)
# Format: cell-based
# Condition notes: human
Observable: inhibition at 10 µM (%)
Give the number; % is assumed, so skip it.

Past entries and their recorded results:
Compound: O=C(O)CCCCCOc1ccccc1Cn1c(C(F)(F)F)cnc1-c1ccc(-c2ccco2)cc1 [Compound 2h]
inhibition at 10 µM, %: 7
--
Compound: C[C@H](CCCOc1ccccc1Cn1c(C(F)(F)F)cnc1-c1ccc(C(F)(F)F)cc1)CC(=O)O [Compound 2a]
inhibition at 10 µM, %: 6

# inhibition at 10 µM lookup, item C[C@H](CCCOc1ccccc1Cn1c(C(F)(F)F)cnc1-c1ccc(C#N)cc1)CC(=O)O [Compound 2f]
3.5

====

# Experiment description: Pharmacokinetic screening in male CD-1 mice
# Type: in vivo
# Condition notes: male, CD-1, in vivo, 1 mg/kg; mouse, 1.0 mpk iv; read-out: IV PK Beta T½ (converted)
Observable: half-life (h)
Give the number; h is assumed, so skip it.

Past entries and their recorded results:
Compound: C[C@H](CCCOc1ccccc1Cn1c(C(F)(F)F)cnc1-c1ccc(C#N)cc1)CC(=O)O
Measurement units: h
half-life: 4.1
--
Compound: C[C@H](CCCOc1ccccc1Cn1c(C(F)(F)F)cnc1-c1ccc(Cl)cc1)CC(=O)O
Measurement units: h
half-life: 6.3

Kindly consider the entry below.
# half-life lookup, item "C[C@H](CCCOc1ccccc1Cn1c(Cl)cnc1-c1ccc(C(F)(F)F)cc1)CC(=O)O"
3.5

====

# Experiment description: Pharmacokinetic screening in male Wistar rats
# Condition notes: in vivo, 1 mg/kg, rat, 1.0 mpk iv, read-out: IV PK Vss
Observable: Vd (L/kg)
Give the number; L/kg is assumed, so skip it.

Molecule: C[C@H](CCCOc1ccccc1Cn1c(C(F)(F)F)cnc1-c1ccc(C#N)cc1)CC(=O)O [Compound 2f]
Vd (L/kg): 3.9

# Vd lookup, item C[C@H](CCCOc1ccccc1Cn1c(Cl)cnc1-c1ccc(C(F)(F)F)cc1)CC(=O)O [Compound 2b]
1.2

# Vd lookup, item C[C@H](CCCOc1ccccc1Cn1c(C(F)(F)F)cnc1-c1ccc(C(F)(F)F)cc1)CC(=O)O [Compound 2a]
1.7

====

# Experiment description: Pharmacokinetic screening in male Wistar rats
# Condition notes: in vivo, 3 mg/kg, rat, 3.0 mpk po, read-out: Oral PK AUC (0-inf)
Observable: AUC(0-inf) (ng·h/mL)
Give the number; ng·h/mL is assumed, so skip it.

Past entries and their recorded results:
Compound: C[C@H](CCCOc1ccccc1Cn1c(C(F)(F)F)cnc1-c1ccc(C#N)cc1)CC(=O)O
Observable: AUC(0-inf)
Value: 14900
--
Compound: C[C@H](CCCOc1ccccc1Cn1c(Cl)cnc1-c1ccc(C(F)(F)F)cc1)CC(=O)O
Observable: AUC(0-inf)
Value: 7790

Kindly consider the entry below.
# AUC(0-inf) lookup, item "C[C@H](CCCOc1ccccc1Cn1c(C(F)(F)F)cnc1-c1ccc(C(F)(F)F)cc1)CC(=O)O"
16100

====

# Experiment description: Pharmacokinetic screening in male Wistar rats
# Condition notes: in vivo, 1 mg/kg, rat, 1.0 mpk iv, read-out: IV PK Beta T½ (converted)
Observable: half-life (h)
Give the number; h is assumed, so skip it.

Compound: C[C@H](CCCOc1ccccc1Cn1c(Cl)cnc1-c1ccc(C(F)(F)F)cc1)CC(=O)O
Value: 4.8

Kindly consider the entry below.
# half-life lookup, item "C[C@H](CCCOc1ccccc1Cn1c(C(F)(F)F)cnc1-c1ccc(C(F)(F)F)cc1)CC(=O)O"
7.1

====

# Experiment description: Pharmacokinetic screening in male CD-1 mice
# Type: in vivo
# Condition notes: male, CD-1, in vivo, 1 mg/kg; mouse, 1.0 mpk iv; read-out: IV PK Cl
Observable: clearance

# clearance lookup, item "C[C@H](CCCOc1ccccc1Cn1c(C(F)(F)F)cnc1-c1ccc(Cl)cc1)CC(=O)O"
5.4 mL/min/kg

====

# Experiment description: Pharmacokinetic screening in male CD-1 mice
# Format: in vivo
# Condition notes: male, CD-1, in vivo, 1 mg/kg; mouse, 1.0 mpk iv; read-out: IV PK AUC (0-inf)
Each entry below carries its recorded AUC(0-inf).
Give the number; ng·h/mL is assumed, so skip it.

Compound: C[C@H](CCCOc1ccccc1Cn1c(Cl)cnc1-c1ccc(C(F)(F)F)cc1)CC(=O)O
AUC(0-inf) / ng·h/mL: 1060

Compound: C[C@H](CCCOc1ccccc1Cn1c(C(F)(F)F)cnc1-c1ccc(C#N)cc1)CC(=O)O
AUC(0-inf) / ng·h/mL: 6730

Compound: C[C@H](CCCOc1ccccc1Cn1c(C(F)(F)F)cnc1-c1ccc(Cl)cc1)CC(=O)O
AUC(0-inf) / ng·h/mL: 5620

Kindly consider the entry below.
# AUC(0-inf) lookup, item "C[C@H](CCCOc1ccccc1Cn1c(C(F)(F)F)cnc1-c1ccc(C(F)(F)F)cc1)CC(=O)O"
3310

====

# Experiment description: Pharmacokinetic screening in male CD-1 mice
# Type: in vivo
# Condition notes: male, CD-1, in vivo, 3 mg/kg; mouse, 3.0 mpk po; read-out: Oral PK T max
Observable: Tmax

Past entries and their recorded results:
Compound: C[C@H](CCCOc1ccccc1Cn1c(Cl)cnc1-c1ccc(C(F)(F)F)cc1)CC(=O)O
Tmax: 30 min

Compound: C[C@H](CCCOc1ccccc1Cn1c(C(F)(F)F)cnc1-c1ccc(C(F)(F)F)cc1)CC(=O)O
Tmax: 18 min

Compound: C[C@H](CCCOc1ccccc1Cn1c(C(F)(F)F)cnc1-c1ccc(Cl)cc1)CC(=O)O
Tmax: 18 min

Kindly consider the entry below.
# Tmax lookup, item "C[C@H](CCCOc1ccccc1Cn1c(C(F)(F)F)cnc1-c1ccc(C#N)cc1)CC(=O)O"
18 min

====

# Test target: hERG (Homo sapiens, UniProt Q12809)
# Construct: expressed in transfected cells
# Sequence (Q12809 whole entry): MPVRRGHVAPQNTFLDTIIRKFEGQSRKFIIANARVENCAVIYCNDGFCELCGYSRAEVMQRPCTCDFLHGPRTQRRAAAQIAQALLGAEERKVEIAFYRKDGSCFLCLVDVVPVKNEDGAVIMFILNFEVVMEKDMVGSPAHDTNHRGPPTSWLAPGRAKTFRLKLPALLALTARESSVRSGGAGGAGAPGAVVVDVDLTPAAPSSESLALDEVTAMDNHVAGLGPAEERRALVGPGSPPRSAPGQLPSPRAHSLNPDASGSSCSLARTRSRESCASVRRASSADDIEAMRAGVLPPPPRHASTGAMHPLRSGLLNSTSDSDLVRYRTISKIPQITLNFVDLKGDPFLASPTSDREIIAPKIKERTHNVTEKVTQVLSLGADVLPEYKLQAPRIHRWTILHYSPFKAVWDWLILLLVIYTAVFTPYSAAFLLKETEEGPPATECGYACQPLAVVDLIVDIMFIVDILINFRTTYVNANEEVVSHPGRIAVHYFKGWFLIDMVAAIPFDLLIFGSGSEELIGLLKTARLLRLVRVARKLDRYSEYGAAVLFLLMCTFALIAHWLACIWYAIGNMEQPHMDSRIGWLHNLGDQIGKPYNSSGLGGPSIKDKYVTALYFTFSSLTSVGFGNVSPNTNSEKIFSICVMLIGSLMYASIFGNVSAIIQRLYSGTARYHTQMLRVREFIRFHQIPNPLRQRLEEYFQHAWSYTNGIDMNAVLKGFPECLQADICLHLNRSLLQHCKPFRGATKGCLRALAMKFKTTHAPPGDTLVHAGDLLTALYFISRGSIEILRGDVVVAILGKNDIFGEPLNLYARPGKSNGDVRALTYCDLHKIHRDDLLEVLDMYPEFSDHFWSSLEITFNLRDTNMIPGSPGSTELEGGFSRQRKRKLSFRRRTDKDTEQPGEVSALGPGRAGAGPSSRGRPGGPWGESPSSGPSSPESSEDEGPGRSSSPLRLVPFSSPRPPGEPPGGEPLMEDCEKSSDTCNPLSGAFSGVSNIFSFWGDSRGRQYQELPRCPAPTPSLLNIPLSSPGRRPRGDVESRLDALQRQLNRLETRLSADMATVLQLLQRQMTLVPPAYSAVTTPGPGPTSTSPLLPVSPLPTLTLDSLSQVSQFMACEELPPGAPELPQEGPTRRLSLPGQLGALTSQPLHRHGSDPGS
# Experiment description: hERG inhibition screen (patch clamp, peak hERG tail current)
# Type: cell-based
Observable: hERG % Inhibition at 10 μM (%)
Give the number; % is assumed, so skip it.

Past entries and their recorded results:
Molecule: C[C@H](CCCOc1ccccc1Cn1c(Cl)cnc1-c1ccc(C(F)(F)F)cc1)CC(=O)O [Compound 2b]
Observable: hERG % Inhibition at 10 μM
Value: 3.00

Molecule: C[C@H](CCCOc1ccccc1Cn1c(C(F)(F)F)cnc1-c1ccc(-c2ccco2)cc1)CC(=O)O [Compound 2i]
Observable: hERG % Inhibition at 10 μM
Value: 2.30

Molecule: C[C@H](CCCOc1ccccc1Cn1c(C(F)(F)F)cnc1-c1ccc(OC(F)(F)F)cc1)CC(=O)O [Compound 2g]
Observable: hERG % Inhibition at 10 μM
Value: 2.00

Molecule: C[C@H](CCCOc1ccccc1Cn1c(C(F)(F)F)cnc1-c1ccc(Cl)cc1)CC(=O)O [Compound 2d]
Observable: hERG % Inhibition at 10 μM
Value: 5.00

Kindly consider the entry below.
# hERG % Inhibition at 10 μM lookup, item C[C@H](CCCOc1ccccc1Cn1c(C#N)cnc1-c1ccc(C(F)(F)F)cc1)CC(=O)O [Compound 2c]
2.50
